These data points were gathered from paper PMC7782793.

# measured.on: HDAC3/NCoR2 (Homo sapiens, UniProt O15379)
# Construct: HDAC3/NCoR2 (full length, C-terminal His tag, NCoR2 N-terminal GST tag)
# Sequence (O15379 whole entry): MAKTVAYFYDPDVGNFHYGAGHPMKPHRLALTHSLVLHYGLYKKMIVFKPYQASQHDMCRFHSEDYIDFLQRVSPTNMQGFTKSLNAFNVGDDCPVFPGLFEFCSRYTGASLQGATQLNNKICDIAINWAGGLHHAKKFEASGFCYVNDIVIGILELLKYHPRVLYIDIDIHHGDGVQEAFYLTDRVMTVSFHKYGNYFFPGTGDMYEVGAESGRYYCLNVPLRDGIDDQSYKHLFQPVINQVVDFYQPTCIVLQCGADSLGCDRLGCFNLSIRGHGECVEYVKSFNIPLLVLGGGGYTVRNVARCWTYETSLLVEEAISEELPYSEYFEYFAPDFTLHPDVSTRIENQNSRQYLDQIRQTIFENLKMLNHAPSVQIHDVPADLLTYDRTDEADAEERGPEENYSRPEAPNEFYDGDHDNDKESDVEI
# Sequence (Q9Y618 389-480 partner limits assumed): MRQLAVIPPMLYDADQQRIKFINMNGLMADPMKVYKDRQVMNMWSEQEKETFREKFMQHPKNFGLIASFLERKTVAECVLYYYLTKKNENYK
# method.summary: HDAC inhibition assay (fluorogenic, Ac-Leu-Gly-Lys(Ac)-AMC)
Non-standard residues stand in square brackets, D forms with d. Residues, ends and D or L forms follow the SMILES beside them. *: point of attachment. Asu = N[C@@H](CCCCCC(=O)O)C(=O)O; NHOH = ON*
Ki by entry:
reported.endpoint: Ki

1. CC(=O)N[C@@H](CC(C)C)C(=O)NCC(=O)N[C@@H](CCCCN)C(=O)NCC(=O)NCC(=O)N[C@@H](C)C(=O)N[C@@H](CCCCCC(=O)NO)C(=O)N[C@@H](CCCNC(=N)N)C(=O)N[C@@H](Cc1c[nH]cn1)C(=O)N[C@@H](CCCNC(=N)N)C(=O)N[C@@H](CCCCN)C(=O)N[C@H](C(=O)N[C@@H](CC(C)C)C(=O)N[C@@H](CCCNC(=N)N)C(=O)N[C@@H](CC(=O)O)C(=O)N[C@@H](CC(N)=O)C(=O)N[C@@H](Cc1c[nH]c2ccccc12)C(N)=O)C(C)C [16a] (Ac-LGKGGA[Asu](NHOH)RHRKVLRDNW-NH2); 2.22 nM
2. CC(=O)N1CCC[C@H]1C(=O)N[C@@H](CCCNC(=N)N)C(=O)N[C@@H](CCCCN)C(=O)N[C@@H](CCC(N)=O)C(=O)N[C@@H](CC(C)C)C(=O)N[C@@H](C)C(=O)N[C@H](C(=O)N[C@@H](CCCCN)C(=O)N[C@@H](C)C(=O)N[C@@H](C)C(=O)N[C@@H](CCCNC(=N)N)C(=O)N[C@@H](CCCCCC(=O)NO)C(=O)N[C@@H](CO)C(=O)N[C@@H](C)C(=O)N1CCC[C@H]1C(=O)N[C@@H](C)C(=O)N[C@@H](Cc1c[nH]c2ccccc12)C(N)=O)[C@@H](C)O [14a] (Ac-PRKQLATKAAR[Asu](NHOH)SAPAW-NH2); 16.8 nM

----------
# measured.on: HDAC4 (Homo sapiens, UniProt P56524)
# Construct: purchased BPS Bioscience 50004
# Sequence (P56524 627-1084): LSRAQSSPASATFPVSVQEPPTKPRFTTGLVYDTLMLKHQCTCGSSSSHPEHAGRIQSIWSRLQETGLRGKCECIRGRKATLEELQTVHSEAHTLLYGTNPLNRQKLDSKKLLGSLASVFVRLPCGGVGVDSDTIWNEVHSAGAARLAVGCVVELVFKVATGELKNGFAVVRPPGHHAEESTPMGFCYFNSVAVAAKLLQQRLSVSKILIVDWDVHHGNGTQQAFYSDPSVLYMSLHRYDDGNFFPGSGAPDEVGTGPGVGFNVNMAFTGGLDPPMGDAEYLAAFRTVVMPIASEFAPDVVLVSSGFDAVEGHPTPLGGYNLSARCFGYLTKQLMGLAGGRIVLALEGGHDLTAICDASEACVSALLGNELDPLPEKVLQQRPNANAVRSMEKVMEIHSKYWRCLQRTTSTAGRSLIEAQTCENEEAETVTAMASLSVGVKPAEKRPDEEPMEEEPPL
# method.summary: HDAC inhibition assay (fluorogenic, Ac-Leu-Gly-Lys(Tfa)-AMC)
# Type: biochemical
# measurement.parameters: inhibitor 50 µM, 2 internal replicates
Non-standard residues stand in square brackets, D forms with d. Residues, ends and D or L forms follow the SMILES beside them. *: point of attachment. Asu = N[C@@H](CCCCCC(=O)O)C(=O)O; NHOH = ON*
Examples of compounds with documented residual enzymatic activity relative to control wells follow.
reported.endpoint: residual enzymatic activity relative to control wells

1) CC(=O)N1CCC[C@H]1C(=O)N[C@@H](CCCNC(=N)N)C(=O)N[C@@H](CCCCN)C(=O)N[C@@H](CCC(N)=O)C(=O)N[C@@H](CC(C)C)C(=O)N[C@@H](C)C(=O)N[C@H](C(=O)N[C@@H](CCCCN)C(=O)N[C@@H](C)C(=O)N[C@@H](C)C(=O)N[C@@H](CCCNC(=N)N)C(=O)N[C@@H](CCCCCC(=O)NO)C(=O)N[C@@H](CO)C(=O)N[C@@H](C)C(=O)N1CCC[C@H]1C(=O)N[C@@H](C)C(=O)N[C@@H](Cc1c[nH]c2ccccc12)C(N)=O)[C@@H](C)O [14a] (Ac-PRKQLATKAAR[Asu](NHOH)SAPAW-NH2); 33.99
2) CC(=O)NCC(=O)NCC(=O)N[C@@H](CCCCCC(=O)NO)C(=O)N[C@@H](C)C(=O)N[C@@H](CCCNC(=N)N)C(=O)N[C@@H](C)C(=O)N[C@@H](CCCCN)C(=O)N[C@@H](C)C(=O)N[C@@H](CCCCN)C(=O)N[C@H](C(=O)N[C@@H](CCCNC(=N)N)C(=O)N[C@@H](CO)C(=O)N[C@@H](CO)C(=O)N[C@@H](CCCNC(=N)N)C(=O)N[C@@H](C)C(=O)NCC(=O)N[C@@H](Cc1c[nH]c2ccccc12)C(N)=O)[C@@H](C)O [9a] (Ac-GG[Asu](NHOH)ARAKAKTRSSRAGW-NH2); 54.4
3) CC(=O)N[C@@H](C)C(=O)N[C@H](C(=O)NCC(=O)NCC(=O)N[C@H](C(=O)N[C@@H](CCCCCC(=O)NO)C(=O)N[C@@H](CCCCN)C(=O)N1CCC[C@H]1C(=O)N[C@@H](Cc1c[nH]cn1)C(=O)N[C@@H](CCCNC(=N)N)C(=O)N[C@@H](Cc1ccc(O)cc1)C(=O)N[C@@H](CCCNC(=N)N)C(=O)N1CCC[C@H]1C(=O)NCC(=O)N[C@H](C(=O)N[C@H](C(=O)N[C@@H](Cc1c[nH]c2ccccc12)C(N)=O)C(C)C)[C@@H](C)O)C(C)C)[C@@H](C)O [15a] (Ac-ATGGV[Asu](NHOH)KPHRYRPGTVW-NH2); 74.7
